Test system: TGFβ signal
ASSAY INFO: TGFβ signal inhibitory activity, (SBE)4-Luc reporter in A549 cells (Test Examples 1A and 1B)
Type: cell-based, human
CONDITION SUMMARY: Homo sapiens, A549; test compound 3 µM; Reference Examples, Table 1B; read-out: TGFβ inhibition rate, %
REPORTED METRIC: inhibition at 3 µM (%)

>>> print(df.to_string())
                                    compound  tested_system     reported_metric  reading_unit  numeric_readout
 0  COC(=O)c1cc2ccccc2cc1Oc1ccnc2cc(OC)c(OC)cc12    TGFβ signal  inhibition at 3 µM             %               97
 1   COc1cc2nccc(Oc3ccc(Br)cc3C(C)=O)c2cc1OC    TGFβ signal  inhibition at 3 µM             %                0
 2  COc1ccc(C(=O)c2ccccc2)c(Oc2ccnc3cc(OC)c(OC)cc23)c1    TGFβ signal  inhibition at 3 µM             %               67
 3  COc1ccc(Oc2ccnc3cc(OC)c(OC)cc23)c(C(=O)NC(C)C)c1    TGFβ signal  inhibition at 3 µM             %               29
 4  COc1cc2nccc(Oc3ccc(C)cc3Nc3ccccc3)c2cc1OC    TGFβ signal  inhibition at 3 µM             %               15
 5         COc1cc2nccc(Oc3ccc(C)nc3I)c2cc1OC    TGFβ signal  inhibition at 3 µM             %               99
 6  COc1cc2nccc(Oc3ccc(C)cc3C(=O)N3CCCCC3)c2cc1OC    TGFβ signal  inhibition at 3 µM             %                5
 7  COc1cc2c(Oc3ccc(C)cc3C(=O)c3ccccc3)ccnc2cc1OCCN1CCNCC1    TGFβ signal  inhibition at 3 µM             %              100
 8  CCOC(=O)c1cc2cc(Oc3ccnc4cc(OC)c(OC)cc34)ccc2[nH]1    TGFβ signal  inhibition at 3 µM             %               11
 9  CCOC(=O)c1cc(C(C)=O)ccc1Oc1ccnc2cc(OC)c(OC)cc12    TGFβ signal  inhibition at 3 µM             %               70
10  COc1cc2c(Oc3ccc(C)cc3C(=O)c3ccccc3)ccnc2cc1OCCCCN1CCN(C)CC1    TGFβ signal  inhibition at 3 µM             %               99
11  COc1cc2nccc(Oc3ccc(C)cc3C(=O)c3ccc(C(C)(C)C)cc3)c2cc1OC    TGFβ signal  inhibition at 3 µM             %               24
12  COc1ccc(C(C)=O)c(Oc2ccnc3cc(OC)c(OC)cc23)c1    TGFβ signal  inhibition at 3 µM             %               49
13  COc1cc2nccc(Oc3ccc4ccccc4c3C(C)=O)c2cc1OC    TGFβ signal  inhibition at 3 µM             %               90
14  COc1cc2c(Oc3ccc(C)cc3C(=O)c3ccccc3)ccnc2cc1OCCCN1CCNCC1    TGFβ signal  inhibition at 3 µM             %              100
15  CCN(CC)CC(O)COc1cc2nccc(Oc3ccc(C)cc3C(=O)c3ccccc3)c2cc1OC (stereo not drawn)    TGFβ signal  inhibition at 3 µM             %              100
16  CCC(O)c1cc(OC)ccc1Oc1ccnc2cc(OC)c(OC)cc12 (stereo not drawn)    TGFβ signal  inhibition at 3 µM             %               28
17  CCOC(=O)c1cc(-n2cccc2)ccc1Oc1ccnc2cc(OC)c(OC)cc12    TGFβ signal  inhibition at 3 µM             %               54

* * *

Test system: TGFβ signal
ASSAY INFO: TGFβ signal inhibitory activity, (SBE)4-Luc reporter in A549 cells (Test Examples 1A and 1B)
Format: cell-based, human
CONDITION SUMMARY: Homo sapiens, A549; 3 µM; compounds of Reference Examples (Test Example 1B); read-out: TGFβ inhibition rate, %
REPORTED METRIC: inhibition at 3 µM (%)

>>> print(df.to_string())
                                    compound  numeric_readout
 0  COc1cc2nccc(Oc3cc4cccnc4nc3-c3ccccn3)c2cc1OC               94
 1  COc1cc2c(Oc3cc(C)c(C)cc3C(C)=O)ccnc2cc1OCc1ccccc1               56
 2  COc1cc2c(Oc3cc(C)c(C)nc3-c3nc(C)c(C)s3)ccnc2cc1OCC1CO1 (stereo not drawn)               94
 3  CCCOC(=O)c1cc2ccccc2cc1Oc1ccnc2cc(OC)c(OC)cc12               79
 4  COc1cc2c(Oc3cc4ccccc4nc3C)ccnc2cc1OCCN1CCCC(C(N)=O)C1 (stereo not drawn)              100
 5  COc1cc2c(Oc3cc4cccnc4nc3C)ccnc2cc1OCCN1CCC(O)CC1               99
 6  COc1cc2c(Oc3cc4ccccc4nc3C)ccnc2cc1CCCN1CCOCC1               77
 7  COc1cc2ncnc(Oc3cc4cccnc4nc3-c3ccccc3)c2cc1OC               99
 8  COc1cc2nccc(Oc3cc4cccnc4nc3C(C)(C)C)c2cc1OC              100
 9  CCOC(=O)C1CCCN(CCOc2cc3nccc(Oc4cc5ccccc5nc4C)c3cc2OC)C1 (stereo not drawn)               96
10    COc1cc2nccc(Oc3ccc(O)cc3C(C)=O)c2cc1OC               32
11  COc1cc2c(Oc3cc4ccccc4nc3C)ccnc2cc1OCCCn1ccnc1              100
12  COc1cc2c(Oc3cc4ccccc4nc3C)ccnc2cc1OC[C@H](O)CO               99
13  COc1cc2nccc(Oc3ccc(C)nc3-c3cccc(C)c3)c2cc1OC               99
14   COc1cc2c(Oc3cc4ccccc4nc3C)ccnc2cc1OCCCN              100
15  COc1cc2nccc(Oc3ccc(C)cc3C(=O)c3ccc(O)cc3)c2cc1OC               80
16  COc1cc2nccc(Oc3ccc(SC)nc3-c3cccnc3)c2cc1OC               34
17  COc1ccc(Oc2ccnc3cc(O)c(OC)cc23)c(C(C)=O)c1               50
18  COc1cc2c(Oc3cc(C)c(C)nc3-c3cccnc3)ccnc2cc1OCC(CO)CO               96
19  COc1cc2c(Oc3cc(C)c(C)nc3-c3cccnc3)ccnc2cc1OCCO               99
20  CCOC(=O)COc1cc2nccc(Oc3cc4ccccc4nc3C)c2cc1OC               14
21   CCc1nc2ccncc2cc1Oc1ccnc2cc(OC)c(OC)cc12               28
22  COc1cc2c(Oc3cc4ccccc4nc3C)ccnc2cc1OCC(CO)CO               99
23  COc1cc2c(Oc3cc(C)c(C)nc3-c3ccccn3)ccnc2cc1OCCO              100
24  C=CCON=C(C)c1cc(C)c(C)cc1Oc1ccnc2cc(OC)c(OC)cc12               40
25  COc1cc2c(Oc3cc(C)c(C)nc3-c3cccnc3)ccnc2cc1OCCCO              100
26       COc1cc2c(Oc3cc4ccccc4nc3C)ccnc2cc1O               14
27  COc1cc2c(Oc3cc4ccccc4nc3C)ccnc2cc1OCCN1CCCC(CO)C1 (stereo not drawn)              100
28  CCCOC(=O)c1cc2ccccc2cc1Oc1ccnc2cc(OCCN3CCOCC3)c(OC)cc12               89
29  COc1cc2nccc(Oc3ccc(C)nc3-c3ccc(O)cc3)c2cc1OC               99
30  COc1cc2nccc(Oc3cc4ccncc4cc3-c3cccnc3)c2cc1OC               26
31  COc1cc2nccc(Oc3ccc(C)nc3-c3cccc(CO)c3)c2cc1OC              100
32  COc1cc2nccc(Oc3ccc(C)nc3-c3cn[nH]c3)c2cc1OC              100
33  CCOC(=O)c1cc(F)ccc1Sc1ccnc2cc(OC)c(OC)cc12                7
34  COc1cc2nccc(Oc3ccc(C)nc3-c3cc(F)cc(F)c3)c2cc1OC              100
35  COc1cc2c(Oc3cc4ccccc4nc3C)ccnc2cc1OCCCCl               84
